This collection of values is drawn from PubChem BioAssay (NCI).

# Tested on: UACC-62 melanoma
# Assay Procedure: NCI tumour cell line growth inhibition, 48 h
Where TGI equals or exceeds 30 µM, the correct label is Fulfilled; where it does not, the label is Not fulfilled.

1. Cc1cccc2c(=O)c3c(sc12)c(NCCN)nc1ccccc13	Not fulfilled
2. Cc1ccc(OCCn2cc(Nc3ccccc3)c(=O)[nH]c2=O)cc1	Fulfilled
3. O=C(O)C#Cc1ccc([N+](=O)[O-])cc1	Fulfilled
4. C/C(=C\[C@H]1C[C@@H]([C@@H]2CC[C@]34C[C@]23C=C[C@@H]2[C@@]3(C)CC=C5C[C@@H](c6ccccc6)OC[C@]5(C)[C@@H]3C[C@@H](O)[C@]24C)C(=O)O1)CO	Fulfilled
5. COc1cccc(-c2cc(NCc3ccc4c(c3)OCO4)nc(N)n2)c1	Not fulfilled
6. Cn1cc(C2=C(c3cccc(NCC(O)CO)c3)C(=O)NC2=O)c2cc(Cl)ccc21 (centres undefined)	Not fulfilled
7. CC(C)(C)C1=NN=C2c3ccccc3C(=O)C21 (centres undefined)	Fulfilled
8. CC(=O)OCC1OC(OC2CC3C(C)(C)C(=O)CC[C@]3(C)C3CC[C@]45C[C@]4(CCC5[C@@H](C)CC(O)C(O)C(C)(C)O)[C@]23C)C(O)C(O)C1O (some centres undefined)	Not fulfilled
9. COc1ccc2c(c1)N(CCC1CCCCN1C)c1ccccc1S2 (centres undefined)	Not fulfilled
10. COc1ccc(/C=C2\CCCC3=C2N=C2SC=NN2C3c2ccc(OC)c(OC)c2)cc1OC (centres undefined)	Fulfilled
11. CC1OC2OC3C(OCC(O)C3O)OC(=O)[C@]34CCC(C)(C)CC3C3=CCC5[C@@]6(C)C[C@H](O)[C@H](OC7OC(CO)C(O)C(O)C7OC7OC(COC(=O)CC(C)(O)CC(=O)OC1C(O)C2O)C(O)C(O)C7O)[C@@](C)(CO)C6CC[C@@]5(C)[C@]3(C)CC4 (some centres undefined)	Not fulfilled
12. O=C(CN/C=C\C(=O)c1cc(Cl)ccc1Cl)c1ccccc1	Fulfilled
13. C/C(CN1C(=O)c2ccccc2C1=O)=N\NS(C)(=O)=O	Fulfilled
14. [O-][N+]1=C(c2ccccc2)COc2ccccc21	Fulfilled
15. C=C1CCC2C(C)(CO)C(O)CCC2(C)C1CC(O)C1=CCOC1=O (centres undefined)	Fulfilled
16. COC(=O)CCC(=O)C(C#N)c1ccc(Cl)cc1Cl (centres undefined)	Fulfilled
17. COC(=O)c1cc(O)ccc1NC(=O)c1ccc(O)cc1	Fulfilled
18. O=C1/C(=c2\c3ccccc3n3c(=O)c4ccccc4nc23)Nc2ccccc21	Fulfilled
